system: HL-60(TB) leukemia; assay: NCI tumour cell line growth inhibition, 48 h
property-measured: TGI

# compound, property-measured, observed-measurement
records = [
    ("COc1cc(/C=C/C(=O)c2ccc(Cl)cc2)ccc1OS(=O)(=O)c1ccc(C)cc1", "TGI", "14.8 µM"),
]

Look up TGI: CS(=O)c1ccc(COP(N)(=O)N(CCCl)CCCl)cc1 (stereo unspecified)
> 100 µM

Also check CC(=O)OC(C)(C)/C=C/C(=O)[C@](C)(O)[C@H]1[C@H](O)C[C@@]2(C)[C@@H]3CC=C4[C@@H](C[C@H](O)C(=O)C4(C)C)[C@]3(C)C(=O)C[C@]12C
< 0.01 µM

Also check NC1CC(=O)c2cc(Br)sc21 (stereo unspecified)
> 100 µM

Also check N#CS/C(Cl)=C(/C(Cl)=C(Cl)Cl)[N+](=O)[O-]
> 100 µM

Also check CC(C)CC1c2[nH]c3ccccc3c2C[C@H]2C(=O)NC(CCC(=O)OC(C)(C)C)C(=O)N12 (stereo partly specified)
55.2 µM

----------
// reported TGI per item
test system: SF-539 CNS; experiment: NCI tumour cell line growth inhibition, 48 h

For orientation, consider the following solved cases.
# molecule, TGI
rows = [
    ("O=C1/C(=C\\c2cccc(Oc3ccccc3)c2)SC(c2ccccc2)N1c1ccc(Cl)cc1 (centres undefined)", "52.6 µM"),
    ("C=CCOCn1ccc(=O)[nH]c1=O", "> 100 µM"),
    ("O=C1OC(=O)C2C1C1(c3ccccc3)C(c3ccccc3)=C(c3ccccc3)C2(c2ccccc2)S1=O (centres undefined)", "> 100 µM"),
]

Look up TGI: CC(C)C(N=Cc1ccccc1O)C(=O)O (centres undefined)
> 100 µM

Also check O=c1cc(-c2ccccc2)nc2n1CCN2Cc1ccccc1
73.5 µM

Also check COc1ccc(SC(C)(SC)c2ccccn2)c(OC)n1 (centres undefined)
> 100 µM

Also check Cc1cc2c(s1)C(=O)c1sccc1C2=O
0.622 µM

Also check CN(C)Cc1ccc(C(=O)Nc2ccc3ncnc(Nc4ccc(Oc5cccc(F)c5)c(Cl)c4)c3c2)cc1
3.04 µM

Also check CC1N(C)C(=O)OC12CCN(CCCC(=O)c1ccc(F)cc1)CC2 (centres undefined)
> 100 µM

Also check Nc1c(-c2nc3ccccc3[nH]2)sc(=S)n1-c1ccccc1
> 100 µM

Also check O=C(CCCn1ccnc1[N+](=O)[O-])NCCn1ccnc1
> 100 µM

Also check C=C1CC[C@@H]2C(C)(C)CCC[C@@]2(C)[C@@H]1Cc1cc(O)ccc1O
3.9 µM

Also check CCN(CC)CCS(=O)c1c2cc(OC)ccc2nc2ccc(OC)cc12 (centres undefined)
6 µM

Also check CN(C)c1ccc2c3c(c(=O)oc2c1)CCC3
> 100 µM

Also check CCOC(=O)c1ccc(C(=O)/C(C#N)=C2\CCCN2)[nH]1
> 100 µM

Also check COc1ccc(/C=C\c2cc(OC)c(OC)c(OC)c2)cc1OCC(=O)Nc1nc2ccc(C(F)(F)F)cc2s1
7.87 µM

----------
test system: SNB-75 CNS; assay: NCI tumour cell line growth inhibition, 48 h
property-measured: TGI (µM)
Please reply with the bare figure in µM and do not write the unit itself.

# molecule, unit-name, TGI
measured = [
    ("COc1c(O)ccc2c1CN1CCc3cc4c(cc3C1C2)OCO4 (stereo not given)", "µM", 65.3),
    ("CN(C)Cc1ccc(C(=O)Nc2ccc3ncnc(Nc4ccc(Oc5cccc(F)c5)c(Cl)c4)c3c2)cc1", "µM", 2.84),
    ("OCCCCC#Cc1ccccc1C#Cc1ccccc1C(F)(F)F", "µM", 35.9),
]

Look up TGI: CCN(CC)CCS(=O)c1c2cc(OC)ccc2nc2ccc(OC)cc12 (stereo not given)
36

----------
test system: A498 renal; assay: NCI tumour cell line growth inhibition, 48 h
// reported TGI per item
Please reply with the bare figure in µM and do not write the unit itself.

For orientation, consider the following solved cases.
# compound, unit-name, TGI
records = [
    ("CC1=Cc2cc3[n-]c(cc4nc(cc5[n-]c(cc1n2)cc5C)C(C)=C4CCC(=O)O)c(CCC(=O)O)c3C.[Pd+2]", "µM", 29.8),
    ("O=S1(=O)CCN(Cc2ccccc2)/C1=N\\S(=O)(=O)c1ccc(Cl)cc1", "µM", 73.5),
    ("CC(=O)Nc1ccc2c(C)c3c4ccccc4n(C)c3nc2n1", "µM", 46.2),
]

Look up TGI: CC1NOC(=O)C1N=Nc1ccccc1Cl (stereo not given)
49.3

----------
test system: SK-MEL-5 melanoma; test: NCI tumour cell line growth inhibition, 48 h
// reported TGI per item

For orientation, consider the following solved cases.
# molecule, property-measured, observed-measurement
measured = [
    ("Cc1[nH]c(/C=C2\\C(=O)Nc3ccc(F)cc32)c(C)c1C(=O)NC[C@H](O)CN1CCOCC1", "TGI", "> 10 µM"),
    ("CC(=O)CCC[C@@H](C)[C@@H]1O[C@H]([C@@]2(C)CCC(=O)O2)C[C@H]2C(CSc3ccccc3)C(=O)O[C@@H]12 (stereo not given in full)", "TGI", "> 54.3 µM"),
]

Form field - read-out: TGI; system: SK-MEL-5 melanoma; submitted item: COc1cc2c(/C=C3/C(=O)Nc4ccccc43)c(Cl)n(Cc3ccccc3[N+](=O)[O-])c2cc1C
19.6 µM

Also check OC1CC(O)c2c(Cl)sc(Cl)c21 (stereo not given)
> 100 µM

Also check COc1ccc(CN(CCc2c[nH]c3ccccc23)Cc2ccc(OC)cc2)cc1
9.74 µM

Also check COc1ccc(SC(C)(SC)c2ccccn2)c(OC)n1 (stereo not given)
> 100 µM

Also check Cn1c(=O)c2[nH]c(CS(=O)(=O)Cc3nc4c([nH]3)c(=O)n(C)c(=O)n4C)nc2n(C)c1=O
> 100 µM

----------
system: A498 renal; assay: NCI tumour cell line growth inhibition, 48 h
property-measured: TGI

# compound, target, TGI
measured = [
    ("O=S(=O)(O)c1c(N=Nc2c(O)ccc3ccccc23)ccc2ccccc12", "A498 renal", "> 100 µM"),
    ("CC(C)CCC[C@@H](C)C1CCC2[C@@H]3CCC4CC(CCC=C(c5cc(Cl)c(OC(=O)c6ccccc6)c(C(=O)O)c5)c5cc(Cl)c(OC(=O)c6ccccc6)c(C(=O)O)c5)CC[C@]4(C)C3CC[C@@]21C (some centres undefined)", "A498 renal", "> 100 µM"),
    ("COc1cc(/C=C/C(=O)c2ccc(Cl)cc2)ccc1OS(=O)(=O)c1ccc(C)cc1", "A498 renal", "> 100 µM"),
]

Could you now consider this next compound?
Look up TGI: CC1(C)N=C(N)N=C(N)N1c1cc(Cl)ccc1Cl
> 100 µM

----------
// reported TGI per item
tested on: CCRF-CEM leukemia; experiment: NCI tumour cell line growth inhibition, 48 h

Look up TGI: CC1(C)COC(/C=C/C2=NC(C)(C)CO2)=N1
28.8 µM

Also check COc1ccc(OC)c2nc3c(C(=O)NCCN(C)C)cccc3nc12
11 µM

Also check O=[N+]([O-])/C=C/c1c[nH]c2ccccc12
> 100 µM

Also check CC1NOC(=O)C1N=Nc1ccccc1Cl (stereo unspecified)
> 100 µM

Also check c1ccc2sc(C3(N4CCCCC4)CCCC3)cc2c1
17.7 µM

Also check O=C(CCCn1ccnc1[N+](=O)[O-])NCCn1ccnc1
> 100 µM

----------
// reported TGI per item
system: DU-145 prostate; assay: NCI tumour cell line growth inhibition, 48 h

For orientation, consider the following solved cases.
# compound, TGI
records = [
    ("CSc1cc(Cl)c(C)cc1S(=O)(=O)NC(=O)NNc1ccc(F)c(Cl)c1", "> 100 µM"),
    ("COC12C=CC(CC1)C1C(=O)c3c(C)c(C)n(C)c3C(=O)C12 (stereo unspecified)", "> 100 µM"),
    ("COc1ccc(-c2cn[nH]c2-c2cc(OC)c(OC)c(OC)c2)cc1N", "> 100 µM"),
    ("O=c1cc(-c2cccc(OC(F)(F)F)c2)[nH]c2cc3c(cc12)OCO3", "> 100 µM"),
    ("O=C(C(Br)Br)C(Br)C(Br)c1ccccc1 (stereo unspecified)", "23.6 µM"),
]

Look up TGI: N#C/C=C1\C=CC(O)C(O)C1OC1OC(CO)C(O)C(O)C1O (stereo unspecified)
> 100 µM

Also check Cn1c(=O)c2[nH]c(CS(=O)(=O)Cc3nc4c([nH]3)c(=O)n(C)c(=O)n4C)nc2n(C)c1=O
> 100 µM

Also check C=CCOCn1ccc(=O)[nH]c1=O
> 100 µM

Also check C[N+]1(C)CCC(C#N)(c2ccccc2)CC1
> 100 µM

Also check O=[N+]([O-])C(=C(N1CCOCC1)N1CCOCC1)/C(Cl)=C(\Cl)[N+](=O)[O-]
18 µM

Also check COc1c(O)ccc2c1CN1CCc3cc4c(cc3C1C2)OCO4 (stereo unspecified)
> 100 µM
